Read-out: Vascular cell adhesion molecule 1 (VCAM1), VCAM1 (gene 7412)
assay.overview: BSK_4H_VCAM1: BioMAP Diversity Plus: 4H Assay for Vascular cell adhesion molecule 1 (VCAM1) Biomarker Activity (AID 2283033);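 for outcome: cell-surface VCAM-1 protein measured by ELISA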
experimental.setup: primary human endothelial cells (HUVEC); actives raise or lower the signal
Activity calls are given as the source filed them. Rule for the calls: active = hit-call score of the fitted dose curve at least 0.9, where 1 is the maximum; inactive = score below 0.9.
Your reply should match one of these outcome classes. true (1) for active, false (0) for inactive

molecule	label.value
CC(=O)Oc1ccccc1C(=O)O	false (0)
CCCCCCCCCCCC(=O)OC	false (0)
CCCCCC(=O)O	false (0)
CCNc1cccc(C)c1	false (0)
CC=Cc1ccc(O)c(OC)c1	true (1)
Cc1c(C(=O)O)c(O)cc2c1C(=O)c1c(O)c([C@@H]3O[C@H](CO)[C@@H](O)[C@H](O)[C@H]3O)c(O)c(O)c1C2=O	false (0)
COCCOC[C@H](CC1(C(=O)NC2CCC(C(=O)O)CC2)CCCC1)C(=O)Oc1ccc2c(c1)CCC2 (stereo partly drawn)	false (0)

Alright, here's another molecule for you.
IN: Tell me the recorded outcome of this test for CN1CCCC1=O .
OUT: false (0)

---

Read-out: Ezrin (EZR), EZR (gene 7430)
assay.overview: LTEA_HepaRG_EZR: Life Technologies and Expression Analysis (LTEA) Assay for Ezrin (EZR) using HepaRG (AID 2283491)
experimental.setup: mRNA level, 48 h; actives raise or lower the signal
Active and inactive are the calls of the source. The calls were made as follows: active = hit-call score of the fitted dose curve at least 0.9, where 1 is the maximum; inactive = score below 0.9.
Your reply should match one of these outcome classes. T = active, F = inactive

molecule	label.value
CC=Cc1ccc(O)c(OC)c1	F
Cc1cc(=O)[nH]c(=S)[nH]1	F
CC(CO)OC(C)CO (configuration not stated) (tested in a mixture with another compound)	F
CCCCCC(=O)O	F
Cc1oc(-c2ccccc2)nc1CCOc1cccc2c1ccn2CCC(=O)O	T

IN: Tell me the recorded outcome of this test for FC(F)(F)C(F)(F)C(F)(F)C(F)(F)C(F)(F)C(F)(F)CCI .
OUT: F

IN: Tell me the recorded outcome of this test for Cc1nc(-c2ccc3c(c2)CCN(CCC2CCC(NC(=O)/C=C/c4ccc(F)cc4)CC2)CC3)no1 (configuration not stated) .
OUT: F

IN: Tell me the recorded outcome of this test for O=c1c(O)c(-c2ccc(O)c(O)c2)oc2cc(O)cc(O)c12 .
OUT: F

IN: Tell me the recorded outcome of this test for Cc1ccc(Cl)cc1 .
OUT: F

IN: Tell me the recorded outcome of this test for Cc1cccc(Nc2cc(Cl)nc(SCC(=O)O)n2)c1C .
OUT: F

IN: Tell me the recorded outcome of this test for COCCOCCOC .
OUT: F

IN: Tell me the recorded outcome of this test for CCNc1cccc(C)c1 .
OUT: F

IN: Tell me the recorded outcome of this test for CN1CCN(Cc2cc(-c3ccc4[nH]c(=O)oc4c3)co2)[C@@H](c2ccc(F)cc2)C1 .
OUT: F

IN: Tell me the recorded outcome of this test for CNCc1cc(F)ccc1Oc1ccc(Cl)c(Cl)c1 .
OUT: F

IN: Tell me the recorded outcome of this test for O=c1[nH]cc(F)c(=O)[nH]1 .
OUT: F

IN: Tell me the recorded outcome of this test for O=C(O)Cc1ccccc1Nc1c(Cl)cccc1Cl .
OUT: F

IN: Tell me the recorded outcome of this test for Cc1ccc(C)c(C)c1 .
OUT: F

IN: Tell me the recorded outcome of this test for O=C(O)CCCCC(=O)O .
OUT: F

IN: Tell me the recorded outcome of this test for CCCCC(CC)COC(=O)CC(C(=O)OCC(CC)CCCC)S(=O)(=O)O (configuration not stated) .
OUT: F

IN: Tell me the recorded outcome of this test for NCCO .
OUT: F

IN: Tell me the recorded outcome of this test for CCCCOC(=O)CCCCCCCCC(=O)OCCCC .
OUT: F

IN: Tell me the recorded outcome of this test for Cc1cccc([N+](=O)[O-])c1C .
OUT: F
